FYI, the data here is from patent US10668052B2.

- testDescription: Pharmacokinetic study of tetrabenazine and dihydrotetrabenazine metabolites in plasma after oral tetrabenazine 25 mg tablets
- Format: in vivo, human
- experimentalConditions: male, human, plasma; single-dose oral tetrabenazine 25 mg, fasting, N=08
quantity: Cmax (ng/mL)

Query: Field request: Cmax | item: COc1cc2c(cc1OC)[C@@H]1C[C@H](O)[C@@H](CC(C)C)CN1CC2 [(−)-α-DHTBZ]
Result: 72.9

Query: Field request: Cmax | item: COc1cc2c(cc1OC)C1CC(=O)C(CC(C)C)CN1CC2 (racemic)
Result: 0.58

I: COc1cc2c(cc1OC)[C@H]1C[C@@H](O)[C@H](CC(C)C)CN1CC2 [(+)-α-DHTBZ]
II: COc1cc2c(cc1OC)[C@H]1C[C@H](O)[C@H](CC(C)C)CN1CC2 [(+)-β-DHTBZ]
Query: Between the two listed entries I and II , which has its Cmax at the higher number? Mark your answer with the label of the selected entry.
Result: II
(II: 103 ng/mL, I: 2.61 ng/mL)
